Test system: HOP-92
EXPERIMENT_DESCRIPTION: NCI SRB assay
Assay type: cell-based, human
CONDITION_DESCRIPTION: HOP-92, 5-dose; read-out: LC50 (the source's name)
ASSAY_READOUT: CC50

Prompt: Identify the reported CC50 for the following entry. Cc1ccc(-c2nc(Nc3ccccc3C(=O)O)c3ccccc3n2)cc1
Completion: < 100 µM

====

Test system: KM12
EXPERIMENT_DESCRIPTION: NCI SRB assay
Assay type: cell-based, human
CONDITION_DESCRIPTION: KM12, 10 μM
Parameter threshold = 30%. Response is Y when GI% meets or exceeds it, else N.

# example entries with known answers
- Cc1ccc(-c2nc(Nc3cccc(C(=O)O)c3)c3ccccc3n2)cc1 [7b]: Y
- Cc1cccc(-c2nc(Nc3ccc(C(=O)O)cc3)c3ccccc3n2)c1 [8a]: N
- COc1ccc(-c2nc(Nc3ccccc3C(=O)O)c3ccccc3n2)cc1 [6c]: Y
- Cc1ccc(-c2nc(Nc3ccccc3C(=O)O)c3ccccc3n2)cc1 [6b]: Y
- Cc1cccc(-c2nc(Nc3ccccc3C(=O)O)c3ccccc3n2)c1 [6a]: Y

For the next question, use this compound.
Prompt: Quick check, GI% >= 30%? Cc1ccc(-c2nc(Nc3ccc(C(=O)O)cc3)c3ccccc3n2)cc1 [8b]
Completion: Y

====

Tested on: SF-295
EXPERIMENT_DESCRIPTION: NCI SRB assay
Assay type: cell-based, human
CONDITION_DESCRIPTION: SF-295, 1.00E-5 Molar
# if measured Growth Percent < 60%: T  # else: F

# example entries with known answers
• Cc1cccc(-c2nc(Nc3ccc(C(=O)O)cc3)c3ccccc3n2)c1 = F
• COc1ccc(-c2nc(Nc3ccccc3C(=O)O)c3ccccc3n2)cc1 = T
• Cc1cccc(-c2nc(Nc3ccccc3C(=O)O)c3ccccc3n2)c1 = T
• Cc1ccc(-c2nc(Nc3ccccc3C(=O)O)c3ccccc3n2)cc1 = T
• Cc1ccc(-c2nc(Nc3cccc(C(=O)O)c3)c3ccccc3n2)cc1 = F

For the next question, use this compound.
Prompt: Is Growth Percent of Cc1ccc(-c2nc(Nc3ccc(C(=O)O)cc3)c3ccccc3n2)cc1 strictly below 60%?
Completion: T

====

System: SNB-19
EXPERIMENT_DESCRIPTION: NCI SRB assay
Format: cell-based, human
CONDITION_DESCRIPTION: SNB-19, 10 μM
Below is a list of entries, each paired with its recorded GI% value.
Dear colleague, please return just the value in %, with no unit written.

Consider the following illustrative entries.
- Cc1ccc(-c2nc(Nc3ccccc3C(=O)O)c3ccccc3n2)cc1: 91
- Cc1ccc(-c2nc(Nc3cccc(C(=O)O)c3)c3ccccc3n2)cc1: 28
- Cc1ccc(-c2nc(Nc3ccc(C(=O)O)cc3)c3ccccc3n2)cc1: 29

Prompt: Print SNB-19 GI% for Cc1cccc(-c2nc(Nc3ccc(C(=O)O)cc3)c3ccccc3n2)c1 .
Completion: 33

Prompt: Print SNB-19 GI% for COc1ccc(-c2nc(Nc3ccccc3C(=O)O)c3ccccc3n2)cc1 .
Completion: 55

Prompt: Print SNB-19 GI% for Cc1cccc(-c2nc(Nc3ccccc3C(=O)O)c3ccccc3n2)c1 .
Completion: 79

====

Tested on: UO-31
EXPERIMENT_DESCRIPTION: NCI SRB assay
Format: cell-based, human
CONDITION_DESCRIPTION: UO-31, 5-dose; read-out: LC50 (the source's name)
ASSAY_READOUT: CC50

Prompt: Identify the reported CC50 for the following entry. Cc1ccc(-c2nc(Nc3ccccc3C(=O)O)c3ccccc3n2)cc1
Completion: < 100 µM
